Test target: human Nav1.6 (hNav1.6) (Homo sapiens, UniProt Q9UQD0)
Construct: expressed in transfected cells; host or cells: HEK-293 (G418 selection)
Sequence (Q9UQD0 whole entry): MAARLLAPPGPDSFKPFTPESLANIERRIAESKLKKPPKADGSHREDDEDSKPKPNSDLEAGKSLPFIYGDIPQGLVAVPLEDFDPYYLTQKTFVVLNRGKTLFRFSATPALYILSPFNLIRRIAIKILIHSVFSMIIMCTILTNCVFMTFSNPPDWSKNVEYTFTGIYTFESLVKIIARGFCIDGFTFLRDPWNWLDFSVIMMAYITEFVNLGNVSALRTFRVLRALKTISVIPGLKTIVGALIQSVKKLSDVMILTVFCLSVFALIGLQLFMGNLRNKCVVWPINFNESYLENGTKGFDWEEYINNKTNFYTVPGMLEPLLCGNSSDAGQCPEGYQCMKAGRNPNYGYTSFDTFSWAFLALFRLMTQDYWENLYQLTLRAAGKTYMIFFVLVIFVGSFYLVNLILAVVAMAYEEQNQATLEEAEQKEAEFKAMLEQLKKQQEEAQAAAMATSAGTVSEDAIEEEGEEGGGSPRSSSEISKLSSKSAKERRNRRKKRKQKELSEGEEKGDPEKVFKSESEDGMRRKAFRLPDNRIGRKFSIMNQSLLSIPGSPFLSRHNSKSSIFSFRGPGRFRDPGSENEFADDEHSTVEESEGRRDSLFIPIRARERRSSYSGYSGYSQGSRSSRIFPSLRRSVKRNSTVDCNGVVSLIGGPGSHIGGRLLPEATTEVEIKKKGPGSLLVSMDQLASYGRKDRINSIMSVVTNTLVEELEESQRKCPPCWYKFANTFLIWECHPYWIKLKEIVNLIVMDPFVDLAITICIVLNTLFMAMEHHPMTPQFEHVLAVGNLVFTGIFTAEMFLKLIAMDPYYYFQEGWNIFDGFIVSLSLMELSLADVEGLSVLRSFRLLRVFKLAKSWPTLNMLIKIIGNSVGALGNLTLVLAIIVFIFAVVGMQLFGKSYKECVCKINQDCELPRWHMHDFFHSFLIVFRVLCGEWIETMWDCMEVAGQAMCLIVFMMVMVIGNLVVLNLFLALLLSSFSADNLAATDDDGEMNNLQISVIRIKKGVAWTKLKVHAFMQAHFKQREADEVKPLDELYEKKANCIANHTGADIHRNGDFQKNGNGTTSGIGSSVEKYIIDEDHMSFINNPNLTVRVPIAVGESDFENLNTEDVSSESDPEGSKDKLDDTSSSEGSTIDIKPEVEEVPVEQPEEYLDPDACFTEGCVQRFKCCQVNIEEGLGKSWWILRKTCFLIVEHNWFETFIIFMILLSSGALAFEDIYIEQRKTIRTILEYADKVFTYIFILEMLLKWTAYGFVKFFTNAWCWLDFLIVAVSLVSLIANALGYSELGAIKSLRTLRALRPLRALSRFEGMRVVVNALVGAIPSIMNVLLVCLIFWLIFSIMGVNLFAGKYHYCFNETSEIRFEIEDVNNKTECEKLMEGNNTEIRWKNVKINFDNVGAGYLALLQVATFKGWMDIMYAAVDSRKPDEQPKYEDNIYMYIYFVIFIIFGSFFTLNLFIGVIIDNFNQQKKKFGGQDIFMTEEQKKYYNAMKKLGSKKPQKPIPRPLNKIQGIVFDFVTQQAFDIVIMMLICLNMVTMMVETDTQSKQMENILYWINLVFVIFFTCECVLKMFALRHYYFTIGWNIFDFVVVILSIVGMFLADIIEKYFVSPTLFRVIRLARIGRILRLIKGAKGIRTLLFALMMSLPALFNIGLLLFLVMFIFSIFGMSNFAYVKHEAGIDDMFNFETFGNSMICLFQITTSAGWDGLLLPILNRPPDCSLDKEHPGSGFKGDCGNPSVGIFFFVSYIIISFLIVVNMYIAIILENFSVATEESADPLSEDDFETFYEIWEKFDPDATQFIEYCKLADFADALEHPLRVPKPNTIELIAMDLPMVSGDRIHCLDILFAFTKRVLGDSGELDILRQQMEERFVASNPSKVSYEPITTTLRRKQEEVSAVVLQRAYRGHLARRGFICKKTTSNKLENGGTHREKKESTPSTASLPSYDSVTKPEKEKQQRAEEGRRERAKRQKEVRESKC
Experiment summary: Modulation of late sodium current (INaL), PatchXpress electrophysiology
Format: cell-based
Assay conditions: HEK293; compound at 1 μM; HEK-293 cells expressing recombinant hNav1.6; late current evoked by 300 nM ATX-II; read-out: INaL v1.6 (1 μM, % Inhibition)
Property: inhibition at 1 µM; scope: individual compounds
Endpoint name: inhibition at 1 µM

[[record]]
structure_as_smiles = "FC(F)(F)Oc1ccc(-c2cc3cncn3cn2)cc1"
endpoint_result = "< 30%"

[[record]]
structure_as_smiles = "FC(F)(F)Oc1ccc(-c2ccn3cncc3c2)cc1"
endpoint_result = "< 30%"

[[record]]
structure_as_smiles = "Cc1cc(OC(F)(F)F)ccc1-c1cc2cncn2cn1"
endpoint_result = "< 30%"

[[record]]
structure_as_smiles = "Cc1cc(OC(F)(F)F)ccc1-c1cc2c(C(F)F)ncn2cn1"
endpoint_result = "< 30%"

[[record]]
structure_as_smiles = "C[C@H](Oc1ncc(-c2cc3c(C(F)(F)F)ncn3cn2)cc1F)C(F)(F)F"
endpoint_result = "30 to 70%"

[[record]]
structure_as_smiles = "CC(C)(Oc1ncc(-c2cc3cncn3cn2)cc1F)C(F)(F)F"
endpoint_result = "30 to 70%"

[[record]]
structure_as_smiles = "Cc1cc(OC(F)(F)F)ccc1-c1cnn2cnc(C(F)(F)F)c2c1"
endpoint_result = "< 30%"

[[record]]
structure_as_smiles = "COCc1ncn2cnc(-c3cnc(O[C@H](C)C(F)(F)F)c(F)c3)cc12"
endpoint_result = "> 70%"

[[record]]
structure_as_smiles = "C[C@H](Oc1ncc(-c2cc3cncn3cn2)cc1F)C(F)(F)F"
endpoint_result = "30 to 70%"

